# assayedTarget: T1, ScPif1p (237-780) (Saccharomyces cerevisiae, UniProt P07271 237-780)
# T1 sequence: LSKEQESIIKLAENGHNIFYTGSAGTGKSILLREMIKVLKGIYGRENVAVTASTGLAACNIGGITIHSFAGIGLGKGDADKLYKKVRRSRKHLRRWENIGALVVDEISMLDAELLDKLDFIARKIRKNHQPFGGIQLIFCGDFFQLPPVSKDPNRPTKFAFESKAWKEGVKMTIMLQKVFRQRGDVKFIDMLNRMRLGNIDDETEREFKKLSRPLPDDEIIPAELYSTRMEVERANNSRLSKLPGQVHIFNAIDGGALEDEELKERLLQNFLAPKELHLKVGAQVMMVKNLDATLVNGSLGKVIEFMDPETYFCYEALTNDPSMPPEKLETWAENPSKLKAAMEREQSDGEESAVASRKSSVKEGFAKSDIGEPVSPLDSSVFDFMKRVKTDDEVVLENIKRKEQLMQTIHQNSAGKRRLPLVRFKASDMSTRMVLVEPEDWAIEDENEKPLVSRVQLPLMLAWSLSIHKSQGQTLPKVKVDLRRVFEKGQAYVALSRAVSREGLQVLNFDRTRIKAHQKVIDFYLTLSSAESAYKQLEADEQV
# test: fluorescence anisotropy
measuredAttribute: pKd
Kindly note that pKd refers to -log10 of the concentration in mol/L and answer with the value alone.

Q. Given the binder AGGGTGGGTGGGTGGGT (structured_DNA) [F-G417] , what is its reported pKd?
A. 7.60
